Attribution: the Kinase Knowledgebase extract (Sharma et al. 2016)

Entries with their measured IC50, system PIK3CG (human):

Problem: Quickly give me recorded IC50 for `C[C@H](Nc1ncnc2cccnc12)c1cc2cccc(-c3cnn(C)c3)c2c(=O)n1-c1cccc(F)c1`
Result: < 100 nM

Problem: Quickly give me recorded IC50 for `C[C@H](Nc1cc(N)nc2ccnn12)c1cc2cccc(Cl)c2c(=O)n1-c1ccccc1`
Result: < 100 nM

Problem: Quickly give me recorded IC50 for `Cc1ncc(-c2cccc3cc([C@H](C)Nc4nc(N)nc5cccnc45)n(-c4ccccc4)c(=O)c23)s1`
Result: < 100 nM

Problem: Quickly give me recorded IC50 for `COc1ncc(-c2cccc3cc([C@H](C)Nc4ncnc5cccnc45)n(-c4cccc(F)c4)c(=O)c23)cn1`
Result: 100 to 1000 nM

----------
Would you kindly list IC50 for each of these compounds?
test-target: UniProt P42336
assay-remarks: Assessment of PIK3CA Kinase Activity

Problem: Quickly give me recorded IC50 for `C[C@H](Nc1nc(Cl)nc2cccnc12)c1cc2cccc(-c3cnn(C)c3)c2c(=O)n1C1CC1`
Result: > 10 µM

Problem: Quickly give me recorded IC50 for `C[C@H](Nc1c(C#N)cnc2cccnc12)c1cc2cccc(-c3cnn(C)c3)c2c(=O)n1-c1ccccc1`
Result: > 10 µM

Problem: Quickly give me recorded IC50 for `C[C@H](Nc1ncnc2cc(F)ccc12)c1cc2cccc(Cl)c2c(=O)n1-c1ccccc1`
Result: > 10 µM

Problem: Quickly give me recorded IC50 for `Cc1cc(-c2cccc3nc([C@H](C)Nc4nc(N)nc5cccnc45)n(-c4ccccc4)c(=O)c23)ccn1`
Result: 0.1 to 1 µM

----------
test-target: PIK3CA (human) (UniProt P42336)
Sequence (P42336 whole entry, looked up): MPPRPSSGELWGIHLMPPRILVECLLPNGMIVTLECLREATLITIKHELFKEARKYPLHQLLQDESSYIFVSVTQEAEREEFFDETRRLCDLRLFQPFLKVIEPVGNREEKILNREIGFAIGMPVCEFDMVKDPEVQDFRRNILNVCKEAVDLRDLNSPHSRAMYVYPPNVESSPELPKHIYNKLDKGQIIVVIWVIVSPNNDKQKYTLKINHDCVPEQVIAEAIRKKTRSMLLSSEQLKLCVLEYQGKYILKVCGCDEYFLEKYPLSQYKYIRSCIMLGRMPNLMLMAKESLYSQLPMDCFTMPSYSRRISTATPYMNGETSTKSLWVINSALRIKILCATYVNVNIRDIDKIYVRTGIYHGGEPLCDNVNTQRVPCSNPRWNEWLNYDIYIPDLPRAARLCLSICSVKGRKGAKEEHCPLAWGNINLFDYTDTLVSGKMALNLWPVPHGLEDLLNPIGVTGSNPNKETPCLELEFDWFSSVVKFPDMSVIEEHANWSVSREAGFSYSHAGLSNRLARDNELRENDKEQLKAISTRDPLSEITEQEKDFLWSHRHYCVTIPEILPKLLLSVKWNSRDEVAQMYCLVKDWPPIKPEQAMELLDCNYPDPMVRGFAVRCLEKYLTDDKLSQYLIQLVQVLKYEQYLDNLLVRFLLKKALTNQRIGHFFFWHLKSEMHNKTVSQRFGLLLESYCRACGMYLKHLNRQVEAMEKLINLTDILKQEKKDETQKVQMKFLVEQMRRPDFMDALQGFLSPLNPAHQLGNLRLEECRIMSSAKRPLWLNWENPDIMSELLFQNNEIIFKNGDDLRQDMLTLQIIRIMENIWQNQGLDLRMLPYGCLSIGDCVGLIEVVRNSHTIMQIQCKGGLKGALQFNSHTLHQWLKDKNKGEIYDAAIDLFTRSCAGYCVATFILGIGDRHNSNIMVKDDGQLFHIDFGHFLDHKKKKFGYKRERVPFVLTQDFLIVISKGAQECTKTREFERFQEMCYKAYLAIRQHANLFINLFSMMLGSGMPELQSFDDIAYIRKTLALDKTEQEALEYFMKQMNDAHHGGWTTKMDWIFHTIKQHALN
assay-remarks: Assessment of PIK3CA Kinase Activity in SKOV-3 Cells
property-name: IC50

Problem: Enter measured IC50, system PIK3CA (human) (UniProt P42336), for the compound shown: `C[C@H](Nc1nc(N)nc2cccnc12)c1nc2cccc(-c3cnn(C)c3)c2c(=O)n1-c1ccccc1`
Result: 100 to 1000 nM

----------
test-target: PIK3CA (human)
assay-remarks: Assessment of PIK3CA Kinase Activity
property-name: IC50

Problem: Quickly give me recorded IC50 for Cc1nsc2cc(C(C)Nc3ncnc4cccnc34)n(-c3ccccc3)c(=O)c12 (stereo not drawn)
Result: > 10 µM

Problem: Quickly give me recorded IC50 for `Cc1ncc(-c2cccc3cc([C@H](C)Nc4nc(N)nc5cccnc45)n(-c4ccccc4)c(=O)c23)s1`
Result: 0.1 to 1 µM

Problem: Quickly give me recorded IC50 for `C[C@H](Nc1ncnc2scnc12)c1cc2cccc(C(F)(F)F)c2c(=O)n1-c1ccccc1`
Result: 0.1 to 1 µM

Problem: Quickly give me recorded IC50 for `C[C@H](Nc1nc(N)ncc1C(F)(F)F)c1cc2cccc(C(F)(F)F)c2c(=O)n1-c1cccc(F)c1`
Result: > 10 µM

Problem: Quickly give me recorded IC50 for `C[C@H](Nc1ncnc2cccnc12)c1cc2c(F)ccc(Cl)c2c(=O)n1-c1ccccc1`
Result: 0.1 to 1 µM

Problem: Quickly give me recorded IC50 for `C[C@H](Nc1ncnn2cncc12)c1cc2cccc(Cl)c2c(=O)n1-c1cccc(F)c1`
Result: > 10 µM

Problem: Quickly give me recorded IC50 for `C[C@H](Nc1c(C#N)cnc2cccnc12)c1cc2cccc(Cl)c2c(=O)n1-c1ccccc1`
Result: > 10 µM

Problem: Quickly give me recorded IC50 for `C[C@H](Nc1ncnc2cccnc12)c1cc2scc(-c3cnn(C)c3)c2c(=O)n1-c1ccccc1`
Result: > 10 µM

Problem: Quickly give me recorded IC50 for `COc1nc(N[C@@H](C)c2cc3cccc(C(F)(F)F)c3c(=O)n2-c2cccc(F)c2)c2ncccc2n1`
Result: > 10 µM

Problem: Quickly give me recorded IC50 for `CNc1nc(N[C@@H](C)c2cc3cccc(-c4cnc(OC)nc4)c3c(=O)n2-c2ccccc2)c2ncccc2n1`
Result: > 10 µM

Problem: Quickly give me recorded IC50 for `C[C@H](Nc1nc(N)nc2cccnc12)c1cc2cccc(Cl)c2c(=O)n1-c1ccccc1`
Result: 0.1 to 1 µM

Problem: Quickly give me recorded IC50 for `C[C@H](Nc1cc(O)nc2cccnc12)c1cc2cccc(Cl)c2c(=O)n1-c1ccccc1`
Result: > 10 µM

Problem: Quickly give me recorded IC50 for `C[C@H](Nc1ncnc2cccnc12)c1cc2cccc(Cl)c2c(=O)n1C1CC1`
Result: 0.1 to 1 µM

Problem: Quickly give me recorded IC50 for `Cc1ncc(-c2cccc3cc([C@H](C)Nc4nc(N)nc5cccnc45)n(-c4ccccc4)c(=O)c23)cn1`
Result: > 10 µM

Problem: Quickly give me recorded IC50 for `C[C@H](Nc1ccn2nccc2n1)c1cc2cccc(Cl)c2c(=O)n1-c1ccccc1`
Result: > 10 µM

Problem: Quickly give me recorded IC50 for `C[C@H](Nc1nc(Cl)ns1)c1cc2cccc(Cl)c2c(=O)n1-c1ccccc1`
Result: > 10 µM

Problem: Quickly give me recorded IC50 for `CNc1nc(N[C@@H](C)c2cc3cccc(-c4cnc(C)nc4)c3c(=O)n2-c2ccccc2)c2ncccc2n1`
Result: > 10 µM

Problem: Quickly give me recorded IC50 for `C[C@H](Nc1c(C#N)cnc2cccnc12)c1cc2cccc(Cl)c2c(=O)n1-c1cccc(F)c1`
Result: > 10 µM

----------
Entries with their measured IC50, system PIK3CB (Human):

Problem: Quickly give me recorded IC50 for `C[C@H](Nc1ncnc2[nH]cnc12)c1cc2scc(C(F)(F)F)c2c(=O)n1-c1ccccc1`
Result: 100 to 1000 nM

Problem: Quickly give me recorded IC50 for `Cc1ncc(-c2cccc3cc([C@H](C)Nc4nc(N)nc5cccnc45)n(-c4ccccc4)c(=O)c23)cn1`
Result: > 10000 nM

Problem: Quickly give me recorded IC50 for `CNc1nc(N[C@@H](C)c2cc3cccc(-c4cnc(OC)nc4)c3c(=O)n2-c2ccccc2)c2ncccc2n1`
Result: > 10000 nM

Problem: Quickly give me recorded IC50 for `C[C@H](Nc1ncnc2cc(F)ccc12)c1cc2cccc(Cl)c2c(=O)n1-c1ccccc1`
Result: > 10000 nM

Problem: Quickly give me recorded IC50 for `COc1ncc(-c2cccc3cc([C@H](C)Nc4cc(N)nc5ccnn45)n(-c4ccccc4)c(=O)c23)cn1`
Result: > 10000 nM

Problem: Quickly give me recorded IC50 for `C[C@H](Nc1ncnn2ccnc12)c1cc2cccc(Cl)c2c(=O)n1-c1ccccc1`
Result: 100 to 1000 nM

Problem: Quickly give me recorded IC50 for `C[C@H](Nc1nc(N)nc2[nH]cnc12)c1cc2cccc(C(F)(F)F)c2c(=O)n1-c1cccc(F)c1`
Result: 100 to 1000 nM

Problem: Quickly give me recorded IC50 for `COc1ncc(-c2cccc3cc([C@H](C)Nc4cc(O)nc5cccnc45)n(-c4ccccc4)c(=O)c23)cn1`
Result: > 10000 nM

----------
test-target: UniProt:O00329
assay-remarks: Assessment of PIK3CD Kinase Activity
Would you kindly list IC50 for each of these compounds?

Problem: Quickly give me recorded IC50 for C[C@H](Nc1ncnc2ccnn12)C1=Cc2cccc(Cl)c2C(C(=O)N2CCOCC2)N1 (stereo partly drawn)
Result: 0.1 to 1 µM

Problem: Quickly give me recorded IC50 for `C[C@H](Nc1ccnc2ccnn12)c1cc2cccc(-c3cnn(C)c3)c2c(=O)n1-c1cccc(F)c1`
Result: < 0.1 µM

Problem: Quickly give me recorded IC50 for `C[C@H](Nc1ncnc2[nH]cnc12)c1cc2scc(C(F)(F)F)c2c(=O)n1-c1ccccc1`
Result: 0.1 to 1 µM

Problem: Quickly give me recorded IC50 for `C[C@H](Nc1ncnc(N)c1C#N)c1cc2cccc(C(F)(F)F)c2c(=O)n1-c1ccccc1`
Result: < 0.1 µM

Problem: Quickly give me recorded IC50 for `C[C@H](Nc1ncnc2cccnc12)c1cc2cccc(-c3cnc(N)nc3)c2c(=O)n1-c1ccccc1`
Result: < 0.1 µM

Problem: Quickly give me recorded IC50 for `CC(C)n1c([C@H](C)Nc2ncnc3cccnc23)cc2cccc(-c3ccc(=O)n(C)c3)c2c1=O`
Result: 0.1 to 1 µM

Problem: Quickly give me recorded IC50 for `C[C@H](Nc1nc(N)nc2cccnc12)c1cc2cccc(-c3cncnc3)c2c(=O)n1-c1ccccc1`
Result: < 0.1 µM

Problem: Quickly give me recorded IC50 for `C[C@H](Nc1nc(Cl)nc2cccnc12)c1cc2cccc(-c3cnn(C)c3)c2c(=O)n1-c1ccccc1`
Result: 0.1 to 1 µM

----------
test-target: PIK3CD (Human) (UniProt O00329)
Sequence (O00329 whole entry, looked up): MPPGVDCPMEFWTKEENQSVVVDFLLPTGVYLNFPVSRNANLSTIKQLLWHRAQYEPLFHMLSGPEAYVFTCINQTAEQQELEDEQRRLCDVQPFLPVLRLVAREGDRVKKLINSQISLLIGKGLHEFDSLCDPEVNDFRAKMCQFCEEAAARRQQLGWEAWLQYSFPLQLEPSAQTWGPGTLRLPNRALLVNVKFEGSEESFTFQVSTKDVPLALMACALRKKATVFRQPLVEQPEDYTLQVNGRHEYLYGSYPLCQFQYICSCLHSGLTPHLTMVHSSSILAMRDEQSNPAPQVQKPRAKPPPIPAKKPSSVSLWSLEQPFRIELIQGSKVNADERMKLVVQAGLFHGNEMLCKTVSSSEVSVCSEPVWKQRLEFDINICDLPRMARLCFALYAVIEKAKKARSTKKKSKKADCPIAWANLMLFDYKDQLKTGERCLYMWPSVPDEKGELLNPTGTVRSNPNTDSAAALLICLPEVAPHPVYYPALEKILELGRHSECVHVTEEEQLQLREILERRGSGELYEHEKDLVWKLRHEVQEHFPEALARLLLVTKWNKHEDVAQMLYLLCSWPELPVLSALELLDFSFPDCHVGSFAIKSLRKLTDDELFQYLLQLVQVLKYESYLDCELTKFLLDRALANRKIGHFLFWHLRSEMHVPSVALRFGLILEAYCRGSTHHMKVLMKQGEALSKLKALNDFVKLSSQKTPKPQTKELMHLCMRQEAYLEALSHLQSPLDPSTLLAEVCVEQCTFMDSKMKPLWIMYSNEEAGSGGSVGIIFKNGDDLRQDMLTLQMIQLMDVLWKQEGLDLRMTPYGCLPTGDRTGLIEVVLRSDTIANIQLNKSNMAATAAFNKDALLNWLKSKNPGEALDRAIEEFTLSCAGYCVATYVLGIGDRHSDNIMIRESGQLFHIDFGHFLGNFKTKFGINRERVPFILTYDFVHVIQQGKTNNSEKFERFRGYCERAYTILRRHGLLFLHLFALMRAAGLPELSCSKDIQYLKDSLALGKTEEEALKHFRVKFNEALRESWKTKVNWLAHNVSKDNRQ
assay-remarks: Assessment of PIK3CD Kinase Activity
pIC50: −log10 of the molar value.
property-name: pIC50

Problem: Quickly give me recorded pIC50 for `C[C@H](Nc1ncnc(N)n1)c1cc2cccc(Cl)c2c(=O)n1-c1cccc(F)c1`
Result: 6.00 to 7.00

Problem: Quickly give me recorded pIC50 for `Cc1cccc2cc([C@H](C)Nc3ncnc4cccnc34)n(-c3cccc(F)c3)c(=O)c12`
Result: > 7.00

Problem: Quickly give me recorded pIC50 for `C[C@H](Nc1ccnc2cccnc12)c1cc2cccc(-c3cnn(C)c3)c2c(=O)n1-c1ccccc1`
Result: > 7.00

Problem: Quickly give me recorded pIC50 for `C[C@H](Nc1ncnn2ccnc12)c1cc2cccc(Cl)c2c(=O)n1-c1ccccc1`
Result: > 7.00

Problem: Quickly give me recorded pIC50 for `COc1ncc(-c2cccc3cc([C@H](C)Nc4cc(N)nc5ccnn45)n(-c4ccccc4)c(=O)c23)cn1`
Result: > 7.00
